system: BALB/C mice; assay: In vivo imaging of Fluc-mRNA LNP expression in mice; settings: 96 h; 5 μg Fluc-mRNA LNP intramuscular, mice
OUTCOME MEASURE: Total radiation intensity

COMPOUND: CO[C@@H]1[C@H](OP(=O)(O)OC[C@H]2O[C@@H](n3cnc4c(=O)[nH]c(N)nc43)[C@H](O)[C@@H]2O)[C@@H](COP(=O)(O)OP(=O)(O)OP(=O)(O)OC[C@@]2(CF)O[C@@H]([n+]3cn(C)c4c(=O)[nH]c(N)nc43)[C@H](O)[C@@H]2O)O[C@H]1n1cnc2c(N)ncnc21
RESULT: 0.35 ×108 p/s

Let us move to another entry and its Total radiation intensity.
Request: Given the compound CO[C@@H]1[C@H](OP(=O)(O)OC[C@H]2O[C@@H](n3cnc4c(=O)[nH]c(N)nc43)[C@H](O)[C@@H]2O)[C@@H](COP(=O)(O)OP(=O)(O)OP(=O)(O)OC[C@H]2O[C@@H]([n+]3cn(C)c4c(=O)[nH]c(N)nc43)[C@H](O)[C@@H]2C(C)NC(C)=O)O[C@H]1n1cnc2c(N)ncnc21 (some centres unmarked) , what is its reported Total radiation intensity?
Response: 0.19 ×108 p/s

====

target: T7 RNA polymerase (Escherichia phage T7, UniProt P00573); assay: In vitro transcription yield of mRNA using cap analogs; assay type: biochemical; details: relative to 5227
Sequence (P00573 whole entry): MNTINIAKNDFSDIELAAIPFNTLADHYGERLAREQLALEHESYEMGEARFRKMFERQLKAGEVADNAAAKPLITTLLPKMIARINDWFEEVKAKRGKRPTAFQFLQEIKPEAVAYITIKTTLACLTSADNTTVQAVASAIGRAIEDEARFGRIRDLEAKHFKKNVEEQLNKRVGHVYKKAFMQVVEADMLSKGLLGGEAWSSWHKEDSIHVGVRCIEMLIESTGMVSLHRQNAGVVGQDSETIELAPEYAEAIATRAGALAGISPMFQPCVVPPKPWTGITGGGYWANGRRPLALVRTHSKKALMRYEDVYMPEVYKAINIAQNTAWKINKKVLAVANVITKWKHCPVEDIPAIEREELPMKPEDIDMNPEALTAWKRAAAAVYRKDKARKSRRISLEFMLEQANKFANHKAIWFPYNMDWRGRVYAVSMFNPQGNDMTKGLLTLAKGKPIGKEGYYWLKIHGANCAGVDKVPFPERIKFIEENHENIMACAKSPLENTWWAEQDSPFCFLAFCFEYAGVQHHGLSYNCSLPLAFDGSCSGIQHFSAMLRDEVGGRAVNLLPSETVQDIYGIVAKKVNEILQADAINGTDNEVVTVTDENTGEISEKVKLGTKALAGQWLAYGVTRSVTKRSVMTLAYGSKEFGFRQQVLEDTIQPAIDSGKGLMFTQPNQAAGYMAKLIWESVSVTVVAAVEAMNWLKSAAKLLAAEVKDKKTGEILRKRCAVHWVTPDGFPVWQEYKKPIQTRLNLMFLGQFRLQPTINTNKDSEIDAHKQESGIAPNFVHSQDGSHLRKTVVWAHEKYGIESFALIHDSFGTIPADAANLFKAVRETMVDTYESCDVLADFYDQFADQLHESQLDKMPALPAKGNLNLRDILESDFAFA
OUTCOME MEASURE: Increase relative to 5227 (in vitro transcription yield) (%)
Numbers only, in %.

Request: Given the compound COC(C)[C@H]1[C@@H](O)[C@H]([n+]2cn(C)c3c(=O)[nH]c(N)nc32)O[C@@H]1COP(=O)(O)OP(=O)(O)OP(=O)(O)OC[C@H]1O[C@@H](n2cnc3c(N)ncnc32)[C@H](OC)[C@@H]1OP(=O)(O)OC[C@H]1O[C@@H](n2cnc3c(=O)[nH]c(N)nc32)[C@H](O)[C@@H]1O (stereo partly shown) , what is its reported Increase relative to 5227 (in vitro transcription yield)?
Response: 27.2

====

Target: DCP2 enzyme (Schizosaccharomyces pombe)
Construct: purchased New England Biolabs
Sequence (O13828 1-243 limits assumed): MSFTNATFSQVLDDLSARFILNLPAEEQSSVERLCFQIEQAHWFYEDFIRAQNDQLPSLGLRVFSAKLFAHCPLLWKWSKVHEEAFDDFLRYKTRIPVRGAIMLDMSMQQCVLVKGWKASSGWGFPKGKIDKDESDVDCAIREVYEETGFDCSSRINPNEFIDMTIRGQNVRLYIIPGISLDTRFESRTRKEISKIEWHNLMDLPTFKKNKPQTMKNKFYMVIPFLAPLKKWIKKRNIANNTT
Sequence (Q9P805 1-127 partner): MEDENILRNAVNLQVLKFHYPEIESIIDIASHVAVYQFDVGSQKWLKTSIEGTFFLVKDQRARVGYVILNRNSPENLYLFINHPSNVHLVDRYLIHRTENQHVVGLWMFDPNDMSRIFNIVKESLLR
Sequence (Q10108 155-180 partner limits assumed): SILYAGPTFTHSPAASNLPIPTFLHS
Experiment: Decapping enzyme stability test
Assay type: biochemical
Settings: relative to N-7113
Assignment: determine reported Decrease relative to N-7113 (decapping rate) for the given compounds.
One number for each entry, in %.

COMPOUND: CO[C@@H]1[C@H](OP(=O)(O)OC[C@H]2O[C@@H](n3cnc4c(=O)[nH]c(N)nc43)[C@H](O)[C@@H]2O)[C@@H](COP(=O)(O)OP(=O)(O)OP(=O)(O)OC[C@@]2(OC)O[C@@H]([n+]3cn(C)c4c(=O)[nH]c(N)nc43)[C@H](O)[C@@H]2O)O[C@H]1n1cnc2c(N)ncnc21 [compound 5227, reference compound]
QUANTITY UNIT: %
MEASURED NUMBER: 20.6
//
COMPOUND: CO[C@@H]1[C@H](OP(=O)(O)OC[C@H]2O[C@@H](n3cnc4c(=O)[nH]c(N)nc43)[C@H](O)[C@@H]2O)[C@@H](COP(=O)(O)OP(=O)(O)OP(=O)(O)OC[C@H]2O[C@@H]([n+]3cn(C)c4c(=O)[nH]c(N)nc43)[C@H](O)[C@]2(F)CN(C)C)O[C@H]1n1cnc2c(N)ncnc21
QUANTITY UNIT: %
MEASURED NUMBER: −2.3

Request: Given the compound CO[C@@H]1[C@H](OP(=O)(O)OC[C@H]2O[C@@H](n3cnc4c(=O)[nH]c(N)nc43)[C@H](O)[C@@H]2O)[C@@H](COP(=O)(O)OP(=O)(O)OP(=O)(O)OC[C@H]2O[C@@H]([n+]3cn(C)c4c(=O)[nH]c(N)nc43)[C@H](O)[C@@H]2C(C)F)O[C@H]1n1cnc2c(N)ncnc21 (stereo partly drawn) , what is its reported Decrease relative to N-7113 (decapping rate)?
Response: 26.5
